Kindly supply the reported composite z-score values for the records listed here.
assayed_target: E3 ubiquitin-protein ligase XIAP (Homo sapiens) (UniProt P98170)
Sequence (P98170 whole entry, looked up): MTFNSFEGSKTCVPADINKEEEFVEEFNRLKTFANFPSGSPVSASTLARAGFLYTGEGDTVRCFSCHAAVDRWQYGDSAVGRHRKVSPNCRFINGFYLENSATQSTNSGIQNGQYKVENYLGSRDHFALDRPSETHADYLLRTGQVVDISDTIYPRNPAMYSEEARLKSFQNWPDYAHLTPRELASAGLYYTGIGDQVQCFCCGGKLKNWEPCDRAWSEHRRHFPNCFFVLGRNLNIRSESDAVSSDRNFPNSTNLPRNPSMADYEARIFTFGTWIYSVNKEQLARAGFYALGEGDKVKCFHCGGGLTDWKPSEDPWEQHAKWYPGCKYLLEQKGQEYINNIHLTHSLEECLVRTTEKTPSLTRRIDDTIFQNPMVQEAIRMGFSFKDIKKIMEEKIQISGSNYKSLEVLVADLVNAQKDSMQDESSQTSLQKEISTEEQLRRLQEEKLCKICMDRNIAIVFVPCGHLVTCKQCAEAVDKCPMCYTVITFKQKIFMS
test_name: XIAP binders, primary screen, biophysical, small-molecule microarray, fluorescence 635 nm (AID 1181);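 note: score merges 667 nm emission and signal to noise over triplicate slides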
stated_conditions: small-molecule microarray binding, higher = more signal

Take each entry in turn and give its composite z-score.
1. C=C[C@H](C)[C@@H](OC(=O)Nc1ccc(OC)cc1)c1ccc(O)c2ccccc12
2. O=C1O[C@@H](c2ccccc2)[C@@H](c2ccccc2)N2[C@@H](c3ccccc3OCCO)[C@]3(C(=O)Nc4ccccc43)[C@@H](C(=O)Nc3nc4ccccc4s3)[C@H]12
3. CCCC[C@@H]1C[C@H]1[C@@H](NC(=O)c1ccco1)c1ccc(-c2ccccc2)cc1
4. C=CCOC(=O)[C@@H]1[C@H]2C(=O)O[C@H](c3ccccc3)[C@H](c3ccccc3)N2[C@H](c2ccc(OCCOC(=O)[C@@H]3C[C@@H]4C(=O)NCC(=O)N4[C@@H]3c3ccc(O)cc3)cc2)[C@@]12C(=O)Nc1ccc(I)cc12

Ans.
1: -0.196; 2: 0.0975; 3: 0.773; 4: 0.164

---

test_name: RPMI8226 myeloma cell viability, profiling panel, resazurin fluorescence, basal, 24 h, PK04 Diversity Set (AID 1180);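 note: RPMI8826 multiple myeloma cell line at 5000 cells per well; test concentration not given here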
stated_conditions: higher = more signal
Criterion: z-score meeting or surpassing -0.2. Met: TRUE. Not met: FALSE.

Example cases with answers are listed next.
O=C(NCCN1CCOCC1)C1N=C(c2ccc(OCCCO)cc2)N(c2ccccc2)O1 (stereo unspecified) = TRUE
OCCCC1=CC(c2cccs2)N(Cc2cc3c(cc2Br)OCO3)CC1 (stereo unspecified) = FALSE
C=C(CC1([C@@H](NP(=O)(c2ccccc2)c2ccccc2)[C@H]2C[C@@H]2CCCC)CC1)c1ccccc1 = TRUE
CC(C)C(=C=CC[C@@H](O)c1ccc(OCCO)cc1)C[C@@H](O)c1ccccn1 = FALSE

Qu. Does the molecule O=C1C[C@@](C(=O)NCCN2CCOCC2)(c2ccc([N+](=O)[O-])cc2)[C@@H](c2ccc(CO)cc2)N1CC12CC3CC(CC(C3)C1)C2 have recorded z-score that is -0.2 or more?
Ans. FALSE

Qu. Does the molecule CC(=O)NCCCC[C@@H]1NC(=O)[C@H]2C[C@@H](C(=O)NCCCCCCNC(=O)CS)[C@@H](c3ccc(O)cc3)N2C1=O have recorded z-score that is -0.2 or more?
Ans. FALSE

Qu. Does the molecule CC(CO)N1C(=O)[C@@H]2C3C(=O)OCCC/C=C\[C@H]3OC23C=CCN(C(C)(C)C)C(=O)[C@@H]13 (stereo partly specified) have recorded z-score that is -0.2 or more?
Ans. TRUE

Qu. Does the molecule COc1cc2c(cc1O)C(c1cccs1)N(C)CC2 (stereo unspecified) have recorded z-score that is -0.2 or more?
Ans. FALSE

Qu. Does the molecule COC(=O)[C@@]1(Cc2ccc(OC)cc2)[C@H]2c3cc(C(=O)N4CCCC4)n(Cc4ccc(C)c(F)c4F)c3C[C@H]2CN1C(=O)c1ccccc1 have recorded z-score that is -0.2 or more?
Ans. FALSE

Qu. Does the molecule CC(C)C(CO)N1C(=O)[C@@H]2C3C(=O)OCCC/C=C\[C@H]3OC23C=CCN(CCN2CCOCC2)C(=O)[C@@H]13 (stereo partly specified) have recorded z-score that is -0.2 or more?
Ans. FALSE

Qu. Does the molecule COCC(=C=CC[C@@H](O)c1cccc(OCCO)c1)C[C@@H](O)c1ccccn1 have recorded z-score that is -0.2 or more?
Ans. TRUE

Qu. Does the molecule CC(C)C[C@@H]1NC(=O)[C@H](C(C)C)NC(=O)[C@@]23C(=O)N[C@@H](Cc4ccccc4)C2[C@H](C)[C@@]2(C)O[C@H]2C3/C=C/CC/C=C/CNC1=O (stereo partly specified) have recorded z-score that is -0.2 or more?
Ans. TRUE

Qu. Does the molecule COC(=O)[C@@]1(Cc2ccccc2)[C@H]2c3cc(C(=O)N(C)C)n(Cc4ccsc4Br)c3C[C@H]2CN1C(=O)c1ccccc1 have recorded z-score that is -0.2 or more?
Ans. FALSE

Qu. Does the molecule C=CC[C@@]1(C(=O)NCCN2CCOCC2)N=C(c2ccc(OCCCO)cc2)O[C@@H]1c1ccccc1N=[N+]=[N-] have recorded z-score that is -0.2 or more?
Ans. FALSE

Qu. Does the molecule CCOC(=O)C1=CC[C@@H](c2ccccc2)N(S(=O)(=O)c2ccc(C)cc2)[C@H]1c1ccccc1C have recorded z-score that is -0.2 or more?
Ans. TRUE

Qu. Does the molecule O=C1N(Cc2ccccc2)c2ccccc2[C@@H]2OC(c3ccc(OCCCO)cc3)=N[C@]12CCS(=O)(=O)c1ccccc1 have recorded z-score that is -0.2 or more?
Ans. TRUE

Reference source: PubChem BioAssay
